src = ChEMBL document CHEMBL2375287

Parameter 'readout' = Ki; parameter 'system' = Histamine H4 receptor (Mus musculus, UniProt Q91ZY2).
Sequence (Q91ZY2 whole entry): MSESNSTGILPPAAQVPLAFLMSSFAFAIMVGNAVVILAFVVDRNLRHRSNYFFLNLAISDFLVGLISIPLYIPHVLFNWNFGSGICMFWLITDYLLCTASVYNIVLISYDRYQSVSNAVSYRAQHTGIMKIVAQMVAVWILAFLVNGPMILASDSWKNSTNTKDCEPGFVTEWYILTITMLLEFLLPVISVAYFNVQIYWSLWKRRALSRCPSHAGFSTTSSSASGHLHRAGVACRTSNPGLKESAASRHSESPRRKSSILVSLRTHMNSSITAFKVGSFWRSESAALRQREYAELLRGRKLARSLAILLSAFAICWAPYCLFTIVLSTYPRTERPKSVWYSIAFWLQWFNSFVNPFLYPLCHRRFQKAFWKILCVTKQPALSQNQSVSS
Record the value in nM, omitting the unit from your answer.

smiles_input=CCc1cnc2c(N3CC[C@@H](NC)C3)nc(N)nc2c1 observable=Ki assay_result=85.1
smiles_input=CN[C@@H]1CCN(c2cc(NCC3CC3)nc(N)n2)C1 observable=Ki assay_result=55

# ---- query molecule ----
Entry `CCc1cnc2c(N3CC(NC)C3)nc(N)nc2c1` , Ki reported as 50.1

====

// pKi lookup, one value per entry
- measured-target: Histamine H3 receptor (Homo sapiens, UniProt Q9Y5N1)
- Sequence (Q9Y5N1 whole entry): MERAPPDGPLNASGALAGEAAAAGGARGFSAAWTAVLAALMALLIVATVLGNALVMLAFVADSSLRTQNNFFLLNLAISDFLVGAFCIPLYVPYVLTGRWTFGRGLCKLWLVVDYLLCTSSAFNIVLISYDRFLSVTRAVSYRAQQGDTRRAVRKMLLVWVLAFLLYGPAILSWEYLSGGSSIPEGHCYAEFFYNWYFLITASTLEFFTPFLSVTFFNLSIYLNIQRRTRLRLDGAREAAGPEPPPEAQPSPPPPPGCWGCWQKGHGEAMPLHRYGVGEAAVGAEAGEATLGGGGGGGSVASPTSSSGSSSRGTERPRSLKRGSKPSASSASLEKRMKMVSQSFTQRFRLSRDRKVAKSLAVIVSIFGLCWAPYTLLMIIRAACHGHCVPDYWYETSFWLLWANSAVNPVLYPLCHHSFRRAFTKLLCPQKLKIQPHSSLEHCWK
Expect pKi as a plain number equal to -log10 of the molar concentration.

smiles_input=CCc1cnc2c(N3CC(NC)C3)nc(N)nc2c1 assay_result=6.11
smiles_input=CC(C)(C)c1ccc2c(N3CCNCC3)nc(N)nc2c1 assay_result=6.07
smiles_input=CNC1CN(c2nc(N)nc3cc(C4CC4)ccc23)C1 assay_result=6.16
smiles_input=CNC1CN(c2nc(N)nc3cc(C(C)C)cnc23)C1 assay_result=6.08

Turning to the following molecule.
Item `CCc1ccc2c(N3CCNCC3)nc(N)nc2c1` ; assay system Histamine H3 receptor (Homo sapiens, UniProt Q9Y5N1); pKi reported as 6.66
